- target_desc: TNIK (Homo sapiens, UniProt Q9UKE5)
- Construct: purchased Promega V4158
- Sequence (Q9UKE5 1-367 limits assumed): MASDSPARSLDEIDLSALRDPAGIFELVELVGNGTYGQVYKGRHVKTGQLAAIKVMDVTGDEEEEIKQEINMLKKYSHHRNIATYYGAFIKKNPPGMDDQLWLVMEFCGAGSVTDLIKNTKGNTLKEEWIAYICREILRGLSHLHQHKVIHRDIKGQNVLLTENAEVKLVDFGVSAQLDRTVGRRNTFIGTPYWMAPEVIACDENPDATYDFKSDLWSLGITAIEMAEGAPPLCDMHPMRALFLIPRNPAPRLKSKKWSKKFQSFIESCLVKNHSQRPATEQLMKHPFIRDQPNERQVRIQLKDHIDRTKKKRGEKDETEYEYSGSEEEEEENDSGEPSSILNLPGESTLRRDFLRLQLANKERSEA
- method_summary: ADP-Glo Kinase Assay, inhibition activity on TNIK
- Type: biochemical
- details: read-out: TNIK
pIC50: −log10 of the molar value.
quantity_measured: pIC50

smiles_string=COc1ccc(-c2ccc(N)c3c2CNC3=O)cc1 quantity_measured=pIC50 readout_relation=< endpoint_value=4.70
smiles_string=CCCCOc1cccc(-c2ccc(NC(=O)c3ccccc3)c3c2CNC3=O)c1 quantity_measured=pIC50 readout_relation=< endpoint_value=4.70
smiles_string=O=C(Nc1ccc(-c2cc3ccccc3o2)c2c1C(=O)NC2)c1ccc(NCCN2CCCC2)cc1 quantity_measured=pIC50 readout_relation== endpoint_value=5.95
smiles_string=O=C(Nc1ccc(-c2ccccc2)c2c1C(=O)NC2)c1ccc(F)cc1 quantity_measured=pIC50 readout_relation== endpoint_value=5.66
smiles_string=CSc1cccc(C(=O)Nc2ccc(-c3ccccc3)c3c2C(=O)NC3)c1 quantity_measured=pIC50 readout_relation=< endpoint_value=4.70
smiles_string=O=C(Nc1ccc(-c2ccco2)c2c1C(=O)NC2)c1ccc(NCCCN2CCCCC2)cc1 quantity_measured=pIC50 readout_relation== endpoint_value=6.43
smiles_string=O=C(Nc1ccc(-c2ccccc2)c2c1C(=O)NC2=O)c1ccccc1 quantity_measured=pIC50 readout_relation== endpoint_value=5.96
smiles_string=Cc1cccc(-c2ccc(NC(=O)c3ccccc3)c3c2CNC3=O)c1C quantity_measured=pIC50 readout_relation== endpoint_value=5.89
smiles_string=O=C(Nc1ccc(Nc2ccccc2Cl)c2c1C(=O)NC2)c1ccc(NCCN2CCCCC2)cc1 quantity_measured=pIC50 readout_relation== endpoint_value=6.28
smiles_string=O=C(Nc1ccc(Nc2ccccc2)c2c1C(=O)NC2)c1ccc(NCCO)cc1 quantity_measured=pIC50 readout_relation== endpoint_value=7.01
smiles_string=COCCNc1ccc(C(=O)Nc2ccc(-c3cccs3)c3c2C(=O)NC3)cc1 quantity_measured=pIC50 readout_relation== endpoint_value=5.87
smiles_string=O=C(Nc1ccc(-c2ccco2)c2c1C(=O)NC2)c1ccc(NCCCN2CCOCC2)cc1 quantity_measured=pIC50 readout_relation== endpoint_value=6.25
smiles_string=CN1CCN(CCCNc2ccc(C(=O)Nc3ccc(Nc4ccccc4)c4c3C(=O)NC4)cc2)CC1 quantity_measured=pIC50 readout_relation== endpoint_value=6.43
smiles_string=O=C(Nc1ccc(F)cc1)Nc1ccc(-c2ccccc2)c2c1C(=O)NC2 quantity_measured=pIC50 readout_relation== endpoint_value=5.60
smiles_string=COCCNc1ccc(C(=O)Nc2ccc(-c3ccccc3OC)c3c2C(=O)NC3)cc1 quantity_measured=pIC50 readout_relation== endpoint_value=6.52
smiles_string=CN(C)CCCNc1ccc(C(=O)Nc2ccc(Br)c3c2C(=O)NC3)cc1 quantity_measured=pIC50 readout_relation== endpoint_value=5.83
smiles_string=COc1ccccc1Nc1ccc(NC(=O)c2ccc(F)cc2)c2c1CNC2=O quantity_measured=pIC50 readout_relation== endpoint_value=6.08
smiles_string=O=C(Nc1ccc(-c2cccc(F)c2)c2c1C(=O)NC2)c1ccccc1 quantity_measured=pIC50 readout_relation== endpoint_value=5.82
